# Test system: PA-1
# ASSAY_PROTOCOL: Primary qHTS to identify gynecologic anti-cancer compounds using libraries of approved drugs and bioactive compounds (AID 1345084); further: nearly all actives have a fitted effect of over 55% in size
# PARTICULARS: Gynecologic cancer cell panel viability, ATPlite luminescence, 48 h; series mostly up to 57.5 µM
Results filed as inconclusive are left out. Activity calls are given as the source filed them. The call rests on the fitted dose curve; in most records, active means well fitted cell-killing curve with a large enough effect; inconclusive means small, poorly fitted or top-dose-only effect, or effect the other way; inactive means flat fitted curve, though single readings scatter.
Classes used: active, inactive

INSERT INTO assay_data (compound, label) VALUES
  ('C=C(NC(=O)C(=C)NC(=O)c1csc(C2=NC3c4csc(n4)C4NC(=O)c5csc(n5)C(C(C)(O)C(C)O)NC(=O)C5CSC(=N5)/C(=C/C)NC(=O)C(C(C)O)NC(=O)c5csc(n5)C3(CC2)NC(=O)C(C)NC(=O)C(=C)NC(=O)C(C)NC(=O)C(C(C)CC)NC2C=Cc3c(C(C)O)cc(nc3C2O)C(=O)OC4C)n1)C(N)=O (stereo not drawn)', 'active'),
  ('O=C(Nc1cc(C(F)(F)F)cc(C(F)(F)F)c1)c1cnc(Cl)nc1C(F)(F)F', 'inactive'),
  ('Oc1ccc(-c2cnc3ccc(NCc4ccco4)nn23)cc1', 'active');

----------
Overview of recorded max response for various compounds
# System: KB-3-1
# ASSAY_PROTOCOL: Cytotoxic Profiling of Annotated Libraries Using Quantitative High-Throughput Screening (AID 1296008); further: on the % scale 0 is the no-effect control and ±100 the full control effect; nearly all actives have a fitted effect of over 60% in size
# PARTICULARS: Five cell lines viability, CellTiter-Glo ATP luminescence, 48-72 h; hits give low values
Results filed as inconclusive are left out.
MEASURED_ENDPOINT: max response (%)

INSERT INTO assay_data (compound, target_desc, recorded_value) VALUES
  ('CCNC1(C(N)=O)CN(c2nc(C)nc3c(-c4ccc(Cl)cc4)c(-c4ccccc4Cl)nn23)C1', 'KB-3-1', -14.3),
  ('CN(C)CCOc1ccccc1Cc1ccccc1 (tested in a mixture with another compound)', 'KB-3-1', 0.128),
  ('C[C@H]1C[C@H]2[C@@H]3CCC4=CC(=O)C=C[C@]4(C)[C@@]3(F)[C@@H](O)C[C@]2(C)[C@@]1(O)C(=O)CCl', 'KB-3-1', -8.19),
  ('CC(=O)O[C@H]1CC[C@@]2(C)C(=CC[C@H]3[C@@H]4CC[C@H](C(C)=O)[C@@]4(C)CC[C@@H]32)C1', 'KB-3-1', 2.35),
  ('CCCCCC(O)/C=C/C=O (configuration not stated)', 'KB-3-1', -19),
  ('Cc1cc(OCCCS(C)(=O)=O)cc(C)c1-c1cccc(COc2ccc(C3=CC(=O)NS3=O)cc2)c1 (configuration not stated)', 'KB-3-1', 3.57),
  ('COc1ccc(NC(=O)c2ccc(-c3ccc(C(=N)N)cc3C)cc2)cc1N1CCN(C)CC1', 'KB-3-1', -9.57),
  ('COC(=O)C1=C(C)NC(C)=C(C(=O)O[C@H]2CCN(Cc3ccccc3)C2)[C@H]1c1cccc([N+](=O)[O-])c1', 'KB-3-1', -25.4),
  ('CC(O)(C(=O)O)C1CCC2(C)C1CCC1(C)C2CCC2C3(C)CCC(O)C(C)(COC4OC(CO)C(O)C(O)C4O)C3CCC21C (configuration not stated)', 'KB-3-1', 1.95),
  ('CC(=O)c1ccc2c(c1)[C@H](NC(=O)c1ccc(F)c(Cl)c1)[C@H](O)C(C)(C)O2', 'KB-3-1', 2.28),
  ('CNC[C@@H]1CC[C@@H](N)[C@@H](O[C@H]2[C@H](O)[C@@H](O[C@H]3OC[C@](C)(O)[C@H](NC)[C@H]3O)[C@H](N)C[C@@H]2N)O1', 'KB-3-1', -26.6),
  ('NCCC(=O)[N-][C@@H](Cc1cnc[nH]1)C(=O)O.[Zn]', 'KB-3-1', -13.6),
  ('C[C@@H](NC(=O)C(=O)c1c[nH]c2ccc([N+](=O)[O-])cc12)c1ccccc1', 'KB-3-1', -11),
  ('O=C(O)CC(O)(CC(=O)O)C(=O)O', 'KB-3-1', -1.69),
  ('CN1CC[C@@H](c2c(O)cc(O)c3c(=O)cc(-c4ccc(C(F)(F)F)cc4Cl)oc23)[C@@H]1CO', 'KB-3-1', 5.55),
  ('C[C@@H]1CCCN1CCc1cc2cc(-c3ccc(C#N)cc3)ccc2o1', 'KB-3-1', -23.6),
  ('Cc1nc(C#Cc2ccnc(Cl)c2)c(C)n1-c1ccc(OC(F)(F)F)cc1', 'KB-3-1', -15.3),
  ('CCCCc1c(-c2ccc(OC)cc2)[nH]c2nccnc12', 'KB-3-1', 2.93),
  ('O=S(=O)(Cc1ccccc1)Nc1ccc(-c2ccc3c(cnn3-c3ccc(F)cc3)c2)c(C(F)(F)F)c1', 'KB-3-1', -15.9),
  ('NCCCNCCCCNC(=O)C(O)NC(=O)CCCCCCN=C(N)N (configuration not stated)', 'KB-3-1', -11.3),
  ('COc1ccc(C2Oc3c(OC)cc(CCCO)cc3C2COC2OC(CO)C(O)C(O)C2O)cc1OC (configuration not stated)', 'KB-3-1', -12.2),
  ('CC(=O)O[C@@H]1[C@@H](OC(C)=O)[C@H](C)O[C@@H](O[C@H]2[C@@H]3C=CO[C@@H](O[C@@H]4O[C@H](CO)[C@@H](O)[C@H](O)[C@H]4O)[C@@H]3[C@@]3(CO)O[C@@H]23)[C@@H]1OC(=O)/C=C/c1ccccc1', 'KB-3-1', 2.67);
